tested on: BAF3-KIF5B-RET cells (Homo sapiens)
Construct: fused on or other part: P33176 (Kinesin-1 heavy chain)
Sequence (P07949 whole entry, change not shown, the tested form may be a part): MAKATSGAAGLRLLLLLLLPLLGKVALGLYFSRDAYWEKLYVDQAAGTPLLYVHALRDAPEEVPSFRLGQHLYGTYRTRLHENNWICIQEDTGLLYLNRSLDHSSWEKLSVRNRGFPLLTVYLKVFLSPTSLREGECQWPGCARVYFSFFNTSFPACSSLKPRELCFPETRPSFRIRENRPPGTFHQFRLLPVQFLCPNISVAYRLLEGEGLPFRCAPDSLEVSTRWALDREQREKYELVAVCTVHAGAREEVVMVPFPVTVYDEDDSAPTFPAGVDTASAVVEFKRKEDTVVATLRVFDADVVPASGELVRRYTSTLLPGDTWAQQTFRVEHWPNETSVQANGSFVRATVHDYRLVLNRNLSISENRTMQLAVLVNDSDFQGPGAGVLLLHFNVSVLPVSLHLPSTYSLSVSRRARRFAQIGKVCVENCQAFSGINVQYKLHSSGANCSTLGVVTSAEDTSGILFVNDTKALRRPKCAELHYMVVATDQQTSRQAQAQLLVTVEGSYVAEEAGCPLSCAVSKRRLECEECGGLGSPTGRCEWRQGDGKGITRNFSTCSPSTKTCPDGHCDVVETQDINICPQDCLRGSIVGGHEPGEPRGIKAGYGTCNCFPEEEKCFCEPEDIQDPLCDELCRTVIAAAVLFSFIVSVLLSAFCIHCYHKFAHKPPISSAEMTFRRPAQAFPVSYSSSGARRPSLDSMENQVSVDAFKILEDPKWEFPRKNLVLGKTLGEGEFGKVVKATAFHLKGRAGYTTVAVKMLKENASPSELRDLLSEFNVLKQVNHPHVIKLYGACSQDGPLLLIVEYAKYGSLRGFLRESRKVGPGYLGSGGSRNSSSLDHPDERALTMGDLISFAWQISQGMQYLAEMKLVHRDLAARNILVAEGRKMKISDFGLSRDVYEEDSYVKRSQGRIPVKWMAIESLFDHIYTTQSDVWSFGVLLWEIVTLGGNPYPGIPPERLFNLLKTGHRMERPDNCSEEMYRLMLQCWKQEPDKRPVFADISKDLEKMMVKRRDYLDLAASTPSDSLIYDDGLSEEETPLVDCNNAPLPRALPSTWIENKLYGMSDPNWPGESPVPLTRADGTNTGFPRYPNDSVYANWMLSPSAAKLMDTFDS
assay: BAF3-KIF5B-RET Cell proliferation assay (CellTiter-Glo, 72 hours)
Assay type: cell-based
assay context: growth inhibition, read-out: BA/F3-KIF5B-RET Cellular activity
Kindly supply the reported GI50 values for the records listed here.

IN: # input compound: COc1ccc(CN2[C@@H]3CC[C@H]2[C@H]2CN(c4ccc(-c5cc(OCC(C)(C)O)cn6ncc(C#N)c56)cn4)C[C@H]23)cn1 ; wanted: its GI50
OUT: > 100 nM

IN: # input compound: CC(C)(O)COc1cc(-c2cnc(N3C[C@@H]4[C@@H](CNC(=O)c5c(F)cccc5Cl)[C@@H]4C3)cn2)c2c(C#N)cnn2c1 ; wanted: its GI50
OUT: 10 to 50 nM

IN: # input compound: CC(C)(O)COc1cc(-c2ccc(N3C[C@H]4CN(C(=O)c5ncccc5Cl)C[C@H]4C3)nc2)c2c(C#N)cnn2c1 ; wanted: its GI50
OUT: 50 to 100 nM

IN: # input compound: CCOc1cc(-c2ccc(N3C4CC5CC3CC(NC(=O)c3ccc(OC)nc3)(C5)C4)nc2)c2c(C#N)cnn2c1 ; wanted: its GI50
OUT: 50 to 100 nM

IN: # input compound: CCOc1cc(-c2cnc(N3C4CC5CC3CC(N)(C5)C4)cn2)c2c(C#N)cnn2c1 ; wanted: its GI50
OUT: > 100 nM

IN: # input compound: Cn1cc(-c2cc(-c3cnc(N4C5CC6CC4CC(NC(=O)c4ncccc4Cl)(C6)C5)cn3)c3c(C#N)cnn3c2)cn1 ; wanted: its GI50
OUT: ≤ 10 nM

IN: # input compound: COc1ccnc(C(=O)NC[C@@H]2[C@H]3CN(c4ccc(-c5cc(-c6cnn(C)c6)cn6ncc(C#N)c56)cn4)C[C@@H]23)c1 ; wanted: its GI50
OUT: ≤ 10 nM

IN: # input compound: COc1ccc(CN2C[C@@H]3CN(c4ccc(-c5cc(-c6cnn(C)c6)cn6ncc(C#N)c56)cn4)C[C@@H]3C2)cn1 ; wanted: its GI50
OUT: ≤ 10 nM
